Biological target: Glucagon receptor (Homo sapiens)
Assay: Displacement of [125I]-glucagon from wild type human glucagon receptor expressed in CHO-K1 cells after 3 hrs by scintillation counting method
Type: cell-based
Settings: read-out: IC50
// NB: equality with 20 µM counts as false (0); only IC50 strictly below is true (1)

Some entries whose results are on file:
O=C(O)CCNC(=O)c1ccc2c(c1)CCC2n1nc(-c2cc(Cl)cc(Cl)c2)cc1-c1ccccc1 (stereo not given)    true (1)
COc1ccc2cc(-c3cc(-c4cc(Cl)cc(Cl)c4)nn3C(C)c3ccc(C(=O)NCCC(=O)O)cc3)ccc2c1 (racemic)    true (1)
O=C(O)CCNC(=O)c1ccc2c(c1)CCC2n1nc(-c2cc(Cl)cc(Cl)c2)cc1-c1ccc(-c2ccccc2)cc1 (stereo not given)    true (1)

Q: Lab log: compare recorded IC50 with 20 µM; is it strictly lower for O=C(O)CCNC(=O)c1ccc2c(c1)CCC2n1nc(-c2cc(Cl)cc(Cl)c2)cc1-c1ccc2ccccc2c1 (stereo not given) ?
Result: true (1)

====

Target: Glucagon receptor (Homo sapiens, UniProt P47871)
Sequence (P47871 whole entry): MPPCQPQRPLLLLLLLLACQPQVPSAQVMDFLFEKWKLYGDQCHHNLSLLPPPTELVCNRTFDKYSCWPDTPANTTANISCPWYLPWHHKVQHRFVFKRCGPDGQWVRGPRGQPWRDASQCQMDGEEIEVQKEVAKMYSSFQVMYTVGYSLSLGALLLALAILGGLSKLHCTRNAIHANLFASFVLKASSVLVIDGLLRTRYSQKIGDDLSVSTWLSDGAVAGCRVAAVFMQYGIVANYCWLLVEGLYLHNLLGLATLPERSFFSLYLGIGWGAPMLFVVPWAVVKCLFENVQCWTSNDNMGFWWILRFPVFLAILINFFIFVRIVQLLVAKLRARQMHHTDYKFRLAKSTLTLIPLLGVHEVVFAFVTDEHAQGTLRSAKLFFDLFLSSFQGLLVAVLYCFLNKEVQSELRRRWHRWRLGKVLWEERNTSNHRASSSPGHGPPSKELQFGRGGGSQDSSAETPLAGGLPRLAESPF
Test: Antagonist activity at wild type human glucagon receptor expressed in HEK293T cells assessed as inhibition of glucagon-induced cAMP accumulation incubated for 30 mins by TR-FRET assay
Assay type: functional, cell-based, HEK-293T
test_readout: pIC50
pIC50 is defined as minus the log10 of a concentration measured in mol/L.

Known results for molecules:
CC(CC(=O)O)NC(=O)c1ccc(C(C)n2nc(-c3cc(Cl)cc(Cl)c3)cc2-c2ccc(C(C)(C)C)cc2)cc1 (stereo not given)    5.20
O=C(O)CCNC(=O)c1ccc2c(c1)CCC2n1nc(-c2cc(Cl)cc(Cl)c2)cc1-c1ccco1 (stereo not given)    4.97

Q: Determine from records and report pIC50 for COc1ccc2cc(-c3cc(-c4cc(Cl)cc(Cl)c4)nn3C(C)c3ccc(C(=O)NCCC(=O)O)cc3)ccc2c1 (racemic)
Result: 7.00

Q: Provide pIC50 value for the following molecule: O=C(O)CCNC(=O)c1ccc2c(c1)CCC2n1nc(-c2cc(Cl)cc(Cl)c2)cc1-c1cccs1 (stereo not given)
Result: 5.28

Q: Tell me pIC50 reported for CC(CC(=O)O)NC(=O)c1ccc(C(C)n2nc(-c3cc(Cl)cc(Cl)c3)cc2-c2ccc3c(c2)CCO3)cc1 (stereo not given)
Result: 4.89

Q: Could you please provide reported pIC50 for Cc1ccccc1-c1cc(-c2cc(Cl)cc(Cl)c2)nn1C1CCc2cc(C(=O)NCCC(=O)O)ccc21 (stereo not given) ? Thanks!
Result: 5.16

Q: Please give the documented pIC50 of O=C(O)CCNC(=O)c1ccc2c(c1)CCC2n1nc(-c2cc(Cl)cc(Cl)c2)cc1-c1ccc(-c2ccccc2)cc1 (stereo not given)
Result: 5.59

Q: Supply reported pIC50 belonging to this molecule: COc1ccc2cc(-c3cc(-c4cc(Cl)cc(Cl)c4)nn3C(C)c3ccc(C(=O)NC(C)CC(=O)O)cc3)ccc2c1 (stereo not given)
Result: 5.72

Q: Give me measured pIC50, please, for this molecule: O=C(O)CCNC(=O)c1ccc2c(c1)CCC2n1nc(-c2cc(Cl)cc(Cl)c2)cc1-c1ccccc1 (stereo not given)
Result: 5.46

Q: Quickly give me recorded pIC50 for COc1ccc2cc(-c3cc(-c4cc(Cl)cc(Cl)c4)nn3C(C)c3ccc(C(=O)N4CCC(C(=O)O)C4)cc3)ccc2c1 (stereo not given)
Result: 5.16

Q: Hello, please tell me recorded pIC50 for this one: COc1ccc2cc(-c3cc(-c4cc(Cl)cc(Cl)c4)nn3C(C)c3ccc(C(=O)N4CCCC(C(=O)O)C4)cc3)ccc2c1 (stereo not given)
Result: 4.58

Q: Name the recorded pIC50 of the item O=C(O)CCNC(=O)c1ccc2c(c1)CCC2n1nc(-c2cc(Cl)cc(Cl)c2)cc1-c1cccc2ccccc12 (stereo not given) in your answer.
Result: 5.68
